# tested-on: Histone deacetylase
# experiment-summary: In vitro residual activity against Histone deacetylase (HDAC) at 1 uM concentration
Please respond with reported residual activity for every item in the list.
API: value field is a number in %; no unit string.

Given the compound O=C(CCCCC(=O)NCCCCNCc1ccccc1-c1ccccc1)NO , what is its reported residual activity?
83.7

May I ask what residual activity has been recorded for CN(C)c1ccc(CNCCCCNC(=O)CCCCCCC(=O)NO)cc1.O=C(O)C(F)(F)F ?
66.1

Name the recorded residual activity for Br.CC(C)(C)c1ccc(CNCCCCNCCCNC(=O)CCCCC(=O)NO)cc1 .
25.1

Reported residual activity for CN(C)c1ccc(CN(CCCCN)C(=O)CCCCCCC(=O)NO)cc1.O=C(O)C(F)(F)F : what is it?
84.4

====

# tested-on: Histone deacetylase
# experiment-summary: In vitro residual activity against Histone deacetylase (HDAC) at 1 uM concentration
Label key: Criterion met means residual activity under 80%; Criterion not met means residual activity of 80% or more.

Here's an entry: Br.CC(C)(C)c1ccc(CNCCCCNCCCNC(=O)CCCCCCC(=O)NO)cc1 . Is its residual activity below 80%?
Criterion met

Item CN(C)c1ccc(CNCCCCNC(=O)CCCCC(=O)NO)cc1.O=C(O)C(F)(F)F : residual activity beneath 80%, strictly?
Criterion not met

Could you please tell me whether residual activity recorded for O=C(CCCCC(=O)NCCCCN(Cc1ccccc1-c1ccccc1)Cc1ccccc1-c1ccccc1)NO is less than 80%?
Criterion not met

Record Cc1ccc(CNCCCCNC(=O)CCCCCCC(=O)NO)cc1.O=C(O)C(F)(F)F : is its residual activity strictly below 80%?
Criterion met

API: query returns whether the molecule falls strictly under 80% in residual activity. Query: Cc1ccc(CNCCCCNC(=O)CCCCC(=O)NO)cc1
Criterion met
